The reported measurements were obtained from ChEMBL document CHEMBL1201862.

- System: SK-MEL-28
- Assay name: NCI tumour cell line growth inhibition, 48 h
Active and inactive are the calls of the source. Rule as the data show it: active = GI50 up to about 1.1 µM and inactive = higher.
Attribute measured: GI50

> print(dat)
                                   molecule  attribute.measured             reported
1  CCN(CC)/C(=C\Cl)Nc1ccccn1.[O-][Cl+3]([O-])([O-])O                GI50  > 100 µM (inactive)
2  O=C1/C(=C\c2cccc(Oc3ccccc3)c2)S(=O)(=O)C(c2ccccc2)N1c1ccc(Cl)cc1 (stereo not given)                GI50   17.8 µM (inactive)
3                        Nc1ccccc1CCCC(=O)O                GI50  > 100 µM (inactive)

Identify measured GI50 obtained with SK-MEL-28 for O=C(O)c1c(-c2cccc3ccccc23)sc(-c2cccc3ccccc23)c1C(=O)O .
> 100 µM (inactive)

Identify measured GI50 obtained with SK-MEL-28 for Cc1ccc(-n2cc(-c3ccc(Cl)cc3)c3c(N/N=C4\SCC(=O)N4C)ncnc32)cc1 .
2.44 µM (inactive)

Identify measured GI50 obtained with SK-MEL-28 for COC(=O)/C=C\[C@H]1[C@H](C)N1S(=O)(=O)c1ccc(C)cc1 (stereo not given in full) .
> 100 µM (inactive)

Identify measured GI50 obtained with SK-MEL-28 for COC(=O)C1=C(O)C(C(=O)OC)[C@]2(O)[C@H](C(=O)OC)[C@H]1C[C@@H](c1ccc(Cl)cc1Cl)[C@H]2C(=O)OC (stereo not given in full) .
12.4 µM (inactive)

Identify measured GI50 obtained with SK-MEL-28 for O=C(CSc1nnc[nH]1)C[P+](c1ccccc1)(c1ccccc1)c1ccccc1 .
> 100 µM (inactive)

Identify measured GI50 obtained with SK-MEL-28 for O=C1OC(CC(=O)c2ccc(Cl)c(Cl)c2)C(Cl)=C1Cl (stereo not given) .
> 100 µM (inactive)

Identify measured GI50 obtained with SK-MEL-28 for Cc1c(-c2ccccc2)[nH]c2ccc(Cl)cc2c1=O .
40.6 µM (inactive)
